tested.target: DNA gyrase subunit A/B (Staphylococcus aureus, UniProt P0A0K8+P20831)
test: Inhibition of Staphylococcus aureus DNA gyrase supercoiling activity
pIC50: −log10 of the molar value.
endpoint: pIC50

Below: 3 compounds and their reported pIC50.
| compound | reported.result |
| --- | --- |
| C/C(=N/OC(=O)c1ccco1)N1N=C(c2ccc(Cl)cc2Cl)CC1c1ccccc1F (stereo not drawn) | 6.57 |
| C/C(=N/OC(=O)c1ccco1)N1N=C(c2ccc(Cl)cc2Cl)CC1c1ccc(C(F)(F)F)cc1 (stereo not drawn) | 6.01 |
| CC1=NN2C(C1)c1ccccc1CC2(C)C (stereo not drawn) | 5.94 |

[A] COC1CC(c2ccccc2)=NN1/C(C)=N\OC(=O)c1ccco1 (stereo not drawn)
[B] C=CC(=O)O/N=C(/C)N1N=C(c2ccc(Cl)cc2Cl)CC1c1ccccc1F (stereo not drawn)
[C] COC1CC(c2ccccc2)=NN1/C(C)=N\OC(=O)c1ccc(C(F)(F)F)cc1 (stereo not drawn)
[D] CC1=NN(/C(C)=N\OC(=O)c2cccnc2)C(c2ccc(OCc3ccc(F)cc3)cc2)C1 (stereo not drawn)
Qu. Order the items by recorded pIC50; the first position goes to the largest value. Put the labels in the requested order and write them down.
Ans. C, B, D, A
